# Tested on: SNB-75 CNS
# run_description: NCI tumour cell line growth inhibition, 48 h
Listed here are compounds together with their documented TGI.

C/C=C(\C)C(=O)O[C@@H]1C=CC(=O)O[C@H]1CNC(=O)[C@H](C)O: > 74.3 µM
c1ccc(/C(=N\Nc2nc3ccccc3s2)c2ccccn2)cc1: > 100 µM
FC(F)(F)c1nc(Br)[nH]c1C(F)(F)F: > 100 µM
CN1C(=O)N(c2nc3ccccc3[nH]2)C(C)(C)C1=O: > 100 µM
Nc1nc(N)c(-c2ccc(Cl)c(Cl)c2)c(CP(Cl)(Cl)(Cl)Br)n1: > 100 µM

## Input Please tell me the measured TGI for O=C(O)CCC(NC(=O)c1ccc(CNc2nc3cc(C(F)(F)F)ccc3nc2C(=O)O)cc1)C(=O)O (stereo not drawn) ; system: SNB-75 CNS.
## Output > 100 µM

## Input Please tell me the measured TGI for NS(=O)(=O)c1cc(C(=O)O)c(Cl)c([N+](=O)[O-])c1Cl ; system: SNB-75 CNS.
## Output > 100 µM

## Input Please tell me the measured TGI for Cc1ccc(C2C3Cc4ccccc4C3=NN2c2ccc(S(=O)(=O)NC(=O)Nc3ccccc3)cc2)cc1 (stereo not drawn) ; system: SNB-75 CNS.
## Output 47.8 µM
